# assayMethodText: NCI Yeast Anticancer Drug Screen. Data for the mlh1 rad18 strain (AID 175)
# experimentalConditions: S. cerevisiae mlh1 rad18 strain growth inhibition; at 50.0 µM; active compounds read high
Compounds without any hit were thinned out: in the full panel of roughly 79,000, 15% have a hit.
Entries and their growth inhibition
valueKind: growth inhibition (%)

                                    compound          valuekind  result
 0          COc1ccccc1N=Nc1c(N)nc(N)[nH]c1=O  growth inhibition     9.8
 1  CC(C)c1cc(O)c2c(c1O)C1CC3C(C)(C)CCC[C@]23C(=O)O1 (some centres not stated)  growth inhibition    96.2
 2         Cc1ccc(N2C(=O)C(Cl)=C(Cl)C2=O)cc1  growth inhibition    97.5
 3  O=C1O/C(=C(/Cl)c2c3ccccc3cc3ccccc23)c2ccccc21  growth inhibition    82.2
 4      CC(=O)c1ccc(Cl)c(N=Cc2cc(Br)ccc2O)c1  growth inhibition    61.5
 5                  CCS(=O)(=O)/C=C/c1ccncc1  growth inhibition    20.3
 6  CC12OC1C(=O)c1ccccc1C2=O (configuration not stated)  growth inhibition    81.6
 7    ClC(Cl)=C1C(=C(Cl)Cl)C(Cl)(Cl)C1(Cl)Cl  growth inhibition    88.2
 8  C/C(=N\NC(N)=S)C(CN1CCCCC1)C(C1=C(O)c2ccccc2OC1)c1ccccc1 (configuration not stated)  growth inhibition    67.5
 9  O=C(O)c1cc(-c2ccc3c(c2)Nc2ccccc2S3)nc2ccc(F)cc12  growth inhibition    98.7
10  CC(C)(C)C1CCC(SCCO)CC1 (configuration not stated)  growth inhibition    95.4
11  CCN(CC)CCNC(=O)c1ccc(N=Cc2cc(Cl)cc(Cl)c2O)cc1  growth inhibition    85.7
